Reported A to B transport (percentage of drug appearing in the opposite compartment) values for a set of compounds
- Tested on: wild-type MDCKII cells
- assay-procedure: Transepithelial transport in monolayers of wild-type MDCKII cells
- condition-notes: after 4h, 5 μM (compound 8: 1 μM)
Expressed in %, but write only the number.

CNC(=O)c1cccc(-c2cc(OC(=O)NC3CCCCC3)ccc2O)c1 [Compound 1]	21.7
CN(C)C(=O)c1cccc(-c2cc(OC(=O)NC3CCCCC3)ccc2O)c1 [Compound 2]	25.6
CC(=O)c1cccc(-c2cc(OC(=O)NC3CCCCC3)ccc2O)c1 [Compound 3]	39.4
N.NC(=O)c1cccc(-c2cc(OC(=O)NC3CCCCC3)ccc2OS(=O)(=O)O)c1 [Compound 9]	7.92
COc1ccc(OC(=O)NC2CCCCC2)cc1-c1cccc(C(N)=O)c1 [Compound 7]	29.3

Provide only the value of recorded A to B transport (percentage of drug appearing in the opposite compartment) for Cc1ccc(OC(=O)NC2CCCCC2)cc1-c1cccc(C(N)=O)c1 [Compound 8]
26.0

Provide only the value of recorded A to B transport (percentage of drug appearing in the opposite compartment) for NC(=O)c1cccc(-c2cc(OC(=O)NC3CCCCC3)ccc2O)c1 [URB937]
17.78

Provide only the value of recorded A to B transport (percentage of drug appearing in the opposite compartment) for O=C(NC1CCCCC1)Oc1ccc(O)c(-c2cccc(C(=O)O)c2)c1 [Compound 4]
4.93

Sourced from paper PMC4134960
